Assay: Thermal stability: residual activity after incubation at 60° C. for one hour
Type: biochemical
Settings: crude recombinant enzyme; after incubation at 60° C. for 1 hour
MEASURE NAME: Residual activity (%)
Numeric answer only, unit % assumed.

Problem: Would you kindly share the measured Residual activity (%) for Ketose 3-epimerase mutant 25: amino acid-substituted mutant of SEQ ID NO: 1 (protein, Arthrobacter histidinolovorans) MKIGCHGLVWTGRFDAEGIRYSVQKTKEAGFDLIEFPLMDPFSFDVATAKSALAEHGLTASASLGLSEATDVSSEDPAIVKAGEELLNRALDVLAELGATDFCGVIYSAMKKYMEPATEQGLSNSKAAVGRVVDRAAGLGINVSLEVVNRYETNVLNTGRQALSYLSDVKRPNLGVHLDTYHMNIEESDMFSPVLDTAEALRYVHIGESHRGYLGTGSVDFDNFFKALGRIGYDGPVVFESFSSAVVAPDLSRMLGIWRNLWADNEELGAHANAFIRDKLTAIKTIELH ?
Solution: 51.4

Problem: Check Ketose 3-epimerase mutant 4: amino acid-substituted mutant of SEQ ID NO: 1 (protein, Arthrobacter histidinolovorans) MKIGCHGLVWTGRFDAEGIRYSVQKTKEAGFDLIEFPLMDPFSFDVATAKSALAEHGLSVSASLGLSEATDVSSEDPAIVKAGEELLNRALDVLAELGATDFCGVIYSAMKKYMEPATEQGLSNSKAAVGRVVDRAAGLGINVSLEVVNRYETNVLNTGRQALSYLSDVKRPNLGVHLDTYHMNIEESDMFSPVLDTAEVLKYVHIGESHRGYLGTGNVDFDNFFKALGRIGYDGPVVFESFSSAVVAPDLSRMLGIWRNLWADNEELGAHANAFIRDKLTAIKTIELH too.
Solution: 123.2
